Values were extracted from patent US20240189440A1.

System: NFκB pathway in Ramos-blue cells
method: Ramos-Blue NFκB/SEAP reporter assay with cysteine-capped linker-payloads, 72 h (Example 15)
Type: cell-based
measurement-setup: Linker-Payload Dose 50 uM; cysteine-capped; 72 hours; SEAP at 630 nm; read-out: Relative Activation
Experimental: A 50 mM cysteine stock was prepared in 0.1 M PBS pH 7.4. 10 equivalents of 50 mM cysteine were added to 1 equivalent of linker-payload to create a 2.50 mM solution. The reaction was vortexed and sat at room temperature for an hour to allow for the Michael addition to occur. […] The cell density and viability were calculated using the Countess Cell Counter and the proper volume of cells was removed in order to have a seeding density of 0.2×10^6 cells/mL per well. […]
metric-name: activation at 50 µM (%)
// units = %; emit number, no label

CCOCc1nc2c(NC(=O)CCCCCN3C(=O)C=CC3=O)nc3ccccc3c2n1CC(C)(C)O : -21
CCCCc1nc2c(N)nc3ccccc3c2n1Cc1ccc(CNC(=O)OCc2ccc(NC(=O)C(CCCNC(N)=O)NC(=O)C(NC(=O)CCCCCN3C(=O)C=CC3=O)C(C)C)cc2)cc1 (centres unmarked) : -19.7
CCCCc1nc2c(N)nc3ccccc3c2n1Cc1ccc(NC(=O)CCCCCN2C(=O)C=CC2=O)cc1 : -52
CCCCc1nc2c(N)nc3ccccc3c2n1Cc1ccc(CNC(=O)C(CCCNC(N)=O)NC(=O)C(NC(=O)CCCCCN2C(=O)C=CC2=O)C(C)C)cc1 (centres unmarked) : -51.4
CCCCc1nc2c(N)nc3ccccc3c2n1Cc1ccc(NC(=O)OCc2ccc(NC(=O)C(CCCNC(N)=O)NC(=O)C(NC(=O)CCCCCN3C(=O)C=CC3=O)C(C)C)cc2)cc1 (centres unmarked) : -19.2
CCCCc1nc2c(N)nc3ccccc3c2n1Cc1ccc(NC(=O)C(CCCNC(N)=O)NC(=O)C(NC(=O)CCCCCN2C(=O)C=CC2=O)C(C)C)cc1 (centres unmarked) : -50.9
CCCCc1nc2c(N)nc3ccccc3c2n1Cc1ccc(CNC(=O)CCCCCN2C(=O)C=CC2=O)cc1 : -52.3

Inquiry: Please look at this molecule and report its activation at 50 µM: CCOCc1nc2c(NC(=O)OCc3ccc(NC(=O)C(CCCNC(N)=O)NC(=O)C(NC(=O)CCCCCN4C(=O)C=CC4=O)C(C)C)cc3)nc3ccccc3c2n1CC(C)(C)O (centres unmarked)
Reply text: -20.8

---

Tested on: NFκB induction (SEAP) in Ramos-blue cells
method: NFkB activation in Ramos-Blue cells for additional TLR7 agonists (Example 31)
Type: cell-based
measurement-setup: lowest concentration that doubles the SEAP background (nontreated) signal, read-out: Lowest concentration to induce 2x SEAP
Decide using EC (2-fold SEAP signal): a value greater than or equal to 0.2 µM is Satisfied, a smaller one is Not satisfied.

CCCCc1nc2c(N)nc3ccccc3c2n1Cc1cccc(NC(=O)OC(C)(C)C)c1 [23e] : Satisfied
CCCCc1nc2c(N)nc3ccccc3c2n1Cc1ccc(NC(=O)CN)cc1 [20f] : Not satisfied
CCCCc1nc2c(N)nc3ccccc3c2n1Cc1cccc(O)c1 [21f] : Satisfied
CCCCC(=O)Nc1ccc(Cn2c(CCCC)nc3c(N)nc4ccccc4c32)cc1 [20k] : Not satisfied

Inquiry: Decide: EC (2-fold SEAP signal) of CCCCOC(=O)Cc1ccc(Cn2c(CCCC)nc3c(N)nc4ccccc4c32)cc1 [20o] >= 0.2 µM?
Reply text: Not satisfied

Inquiry: Quick check, EC (2-fold SEAP signal) >= 0.2 µM? CCCCc1nc2c(N)nc3ccccc3c2n1Cc1cccc(OC)c1 [21e]
Reply text: Satisfied

Inquiry: Would you say CCCCc1nc2c(N)nc3ccccc3c2n1Cc1ccc(NC(=O)CCN)cc1 [20g] shows EC (2-fold SEAP signal) at minimum 0.2 µM?
Reply text: Satisfied

Inquiry: Quick check, EC (2-fold SEAP signal) >= 0.2 µM? CCCCc1nc2c(N)nc3ccccc3c2n1Cc1ccc(NC(=O)CCCCNC(=O)OC(C)(C)C)cc1 [20d]
Reply text: Not satisfied

Inquiry: Say whether CCCCc1nc2c(N)nc3ccccc3c2n1Cc1ccc(NC(=O)CCCNC(=O)OC(C)(C)C)cc1 [20c] shows EC (2-fold SEAP signal) of 0.2 µM or more.
Reply text: Not satisfied

---

Test system: NFκB induction (SEAP) in Ramos-blue cells
method: NFkB activation in Ramos-Blue cells for additional TLR7 agonists (Example 31)
Type: cell-based
measurement-setup: lowest concentration that doubles the SEAP background (nontreated) signal, read-out: Lowest concentration to induce 2x SEAP
Item-by-item account of EC (2-fold SEAP signal)
Please give a number only; it is taken to be in µM.

Please review the following examples before continuing.
CCCCc1nc2c(N)nc3ccccc3c2n1Cc1ccc(NC(=O)CCCCCN)cc1 [20j] : 0.21
CCCCc1nc2c(N)nc3ccccc3c2n1Cc1ccc(NC(C)=O)cc1 [20l] : 0.023
CCCCc1nc2c(N)nc3ccccc3c2n1Cc1ccc(NC(=O)OC(C)C)cc1 [20n] : 0.0076
CCCCc1nc2c(N)nc3ccccc3c2n1Cc1ccc(NC(=O)CCCCCNC(=O)OC(C)(C)C)cc1 [20e] : 0.069
CCCCc1nc2c(N)nc3ccccc3c2n1Cc1ccc(OC)cc1 [22e] : 0.21

Inquiry: Please list EC (2-fold SEAP signal) recorded for the compound CCCCc1nc2c(N)nc3ccccc3c2n1Cc1ccc(NC(=O)OCC)cc1 [20m]
Reply text: 0.023

Inquiry: Return EC (2-fold SEAP signal) (reported value) for this compound: CCCCc1nc2c(N)nc3ccccc3c2n1Cc1cccc(N)c1 [23f]
Reply text: 0.023

Inquiry: Look up and state reported EC (2-fold SEAP signal) for CCCCc1nc2c(N)nc3ccccc3c2n1Cc1ccc(O)cc1 [22f]
Reply text: 0.069
